test: Human HepG2 cell viability assay in 384 well format; type: toxicity, cell-based; set-up: dose 125 nL, time 70.5 hour; concentration not given beside the values; settings: HepG2 cells, read-out: Inhibition
// reported cytotoxicity at 70.5 h per item

Consider the following illustrative entries.
CCC(CO)N(Cc1ccsc1)Cc1ccccc1C(=O)O (stereo unspecified); -8.61%
O=C(CCc1ccccc1F)NS(=O)(=O)c1ccc2c(c1)OCCCO2; -3.8%
CC(C)c1nc2c(n1C)CCN(CC(=O)Nc1cccnc1)C2; -9.65%

The compound Cc1nc2cc(OCc3nc(C(=O)NC(C)(CO)CO)co3)ccc2s1 showed cytotoxicity at 70.5 h equal to 6.62%

For O=C(c1cc(Br)ccc1-n1cnnn1)N1CCCC1 the compound record lists cytotoxicity at 70.5 h as -3.68%

Data point: CC(Nc1ccc(N2C(=O)CCCC2=O)cc1)c1ccc(C#N)cc1 (stereo unspecified) ; cytotoxicity at 70.5 h = -6.87%

For reference, reported cytotoxicity at 70.5 h for Clc1cc(CN2CCCC(Cn3cncn3)C2)c2ncccc2c1 (stereo unspecified) stands at -12.2%

Entry Cc1ccc(S(=O)(=O)N2C[C@H]3C[C@H](NC(=O)c4ccnn4C)[C@H]3C2)cc1 ; cytotoxicity at 70.5 h = 46.1%

Value of cytotoxicity at 70.5 h reported for the compound O=C(c1ccc(SC(F)F)cc1)N1CCOCC1c1ncon1 (stereo unspecified) is -3.71%

The reported value for Cc1cccc2[nH]c(C3CCN(C(=O)c4ccnn4C)CC3)nc12 in terms of cytotoxicity at 70.5 h is 0.0948%

Recorded cytotoxicity at 70.5 h (compound CCN(Cc1cccc2c1OCCO2)C(=O)NC(C)(C)C ): -2.31%
